system: NCl-H23 (non-small cell lung cancer) cells; assay: Caspase Activity Assay (Caspase-Glo 3/7, 6 h treatment), NCI-H23; assay type: cell-based; conditions: Homo sapiens, NCI-H23, 6 h, geometric mean of multiple measurements
Property measured: EC50

Q. Could you tell me which EC50 is on file for Cc1c2c(nn1C)CSCc1cc(n(C)n1)CSc1cc(c3ccccc3c1)OCCCc1c(C(=O)O)n(C)c3c-2c(Cl)ccc13 (single isomer, unassigned) [Example 3] ?
A. > 10 µM

----------
test system: KMS-12-BM (multiple myeloma) cells; assay: Caspase Activity Assay (Caspase-Glo 3/7, 6 h treatment), KMS-12-BM; format: cell-based; details: KMS-12-BM cells, geometric mean of multiple measurements
Property measured: EC50 (nM)
Provide only the numeric value, understood in nM.

Q. Query (molecule): Cc1c2c(nn1C)CSCc1cc(n(C)n1)CSc1cc(c3ccccc3c1)OCCCc1c(C(=O)O)n(C)c3c-2c(Cl)ccc13 (atropisomer, axis not shown; (Ra)) ; field requested: EC50
A. 43
